ASSAYED_TARGET: TAFIa (activated human TAFI) (Homo sapiens)
Sequence (Q96IY4 115-423): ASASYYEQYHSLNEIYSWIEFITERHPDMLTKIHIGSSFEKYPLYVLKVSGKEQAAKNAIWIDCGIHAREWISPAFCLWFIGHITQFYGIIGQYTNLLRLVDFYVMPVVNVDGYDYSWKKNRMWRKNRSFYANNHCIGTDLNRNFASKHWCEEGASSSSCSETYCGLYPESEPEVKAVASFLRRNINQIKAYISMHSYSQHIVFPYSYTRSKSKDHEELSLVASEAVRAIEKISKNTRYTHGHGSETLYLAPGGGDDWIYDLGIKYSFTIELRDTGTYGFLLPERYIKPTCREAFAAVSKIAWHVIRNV
METHOD_DESCRIPTION: Assay for TAFIa inhibition (Ki determination, FAAL substrate hydrolysis)
TEST_SETTINGS: Ki calculated from IC50 with Cheng-Prusoff equation; substrate furylacryloyl-alanyl-lysine, 24° C.; read-out: Ki (TAFla)
Where a name gives a salt, the structure may show the parent alone.
READOUT_TYPE: Ki (nM)

> print(dat)
                                   compound  measured
1  NCCOC(Cc1cn(CCc2ccccc2)cn1)C(=O)O (centres unmarked) [Example 4]        10
2  C[C@H](CN)O[C@@H](Cc1cn(-c2ccc(OC3CCCCC3)cc2)cn1)C(=O)O [Example 49]         9
3  C[C@H](CN)O[C@@H](Cc1c[nH]cn1)C(=O)O [Example 51]        26
4  NCCOC(Cc1cn(-c2cccc(Oc3ccccc3)c2)cn1)C(=O)O (centres unmarked) [Example 40, dihydrochloride]        14
5  NCCO[C@@H](Cc1cn(CCC2CCCCC2)cn1)C(=O)O [Example 5]        10
